- System: acyl-coenzyme A: cholesterol acyltransferase
- test protocol: Inhibition of ACAT / intracellular cholesterol esterification in vitro (procedure of Ross et al.)
- Format: cell-based
- applied conditions: 25 μM
parameter: % Inhibition (%)
Numbers only, in %.

Solved cases (6 shown):
# % Inhibition lookup, item CCCCCC(C)N(Cc1ccc(OCC(C)C)cc1)C(Nc1ccc(OC)cc1OC)=C1C(=O)OC(C)(C)OC1=O (stereo not drawn)
99

Please give the measured % Inhibition for this molecule: CCCCCC(C)N(Cc1ccc(OCC(C)C)cc1)C(Nc1ccc(C)cc1C)=C1C(=O)OC(C)(C)OC1=O (stereo not drawn)
98

Quick check: % Inhibition of CCCCCCCN(Cc1ccc(CC(C)(C)C)cc1)C(Nc1cc(C(C)(C)C)c(O)c(C(C)(C)C)c1)=C1C(=O)OC(C)(C)OC1=O ?
96

Consider the molecule CCCCCC(C)N(Cc1ccc(CC(C)C)cc1)C(Nc1cccc(OCc2ccccc2)c1)=C1C(=O)OC(C)(C)OC1=O (stereo not drawn) and give its measured % Inhibition.
98

Field request: % Inhibition | item: CCCCCC(C)N(Cc1ccc(OCCC(C)C)cc1)C(Nc1ccc(OC)cc1OC)=C1C(=O)OC(C)(C)OC1=O (stereo not drawn)
99

Any idea what % Inhibition was measured for CCCCCC(C)N(Cc1ccc(C(C)(C)C)cc1)C(Nc1ccc(OCCCC)cc1)=C1C(=O)OC(C)(C)OC1=O (stereo not drawn) ?
96

Value sought for every listed molecule: % Inhibition.
1. CCCCCCCN(Cc1ccc(CCCCC)cc1)C(Nc1ccc(OC)cc1OC)=C1C(=O)OC(C)(C)OC1=O
2. CCCCCCCN(Cc1ccc(C(C)(C)C)cc1)C(Nc1ccc(OCCCC)cc1)=C1C(=O)OC(C)(C)OC1=O
3. COc1ccc(NC(=C2C(=O)OC(C)(C)OC2=O)N(Cc2ccc(CC(C)C)cc2)C(C)CCCC(C)C)c(OC)c1 (stereo not drawn)
4. COc1ccc(NC(=C2C(=O)OC(C)(C)OC2=O)N(Cc2ccc(CC(C)C)cc2)C2CCN(CCc3ccccc3)CC2)c(OC)c1
5. CCCCCCCN(Cc1ccc(C(C)(C)C)cc1)C(Nc1cc(OC)c(OC)c(OC)c1)=C1C(=O)OC(C)(C)OC1=O
6. CCCCCC(C)N(Cc1ccc(CC(C)(C)C)cc1)C(Nc1ccc(N(C)C)cc1C)=C1C(=O)OC(C)(C)OC1=O (stereo not drawn)
7. CCCCCc1ccc(CN(C(Nc2ccc(N(C)C)cc2)=C2C(=O)OC(C)(C)OC2=O)C(C)CCCCC)cc1 (stereo not drawn)
8. CCCCCCCN(Cc1ccc(OCCC(C)C)cc1)C(Nc1ccc(N(C)C)cc1)=C1C(=O)OC(C)(C)OC1=O

1. 99
2. 98
3. 99
4. 85
5. 98
6. 98
7. 98
8. 93

Please supply % Inhibition for each of the following items, keeping them in order.
1. CCCCCCCCCCN(Cc1ccc(C(C)(C)C)cc1)C(Nc1ccc(OC)cc1OC)=C1C(=O)OC(C)(C)OC1=O
2. CCCCCCCN(Cc1ccc(C(C)(C)C)cc1)C(Nc1ccc(OCc2ccccc2)cc1)=C1C(=O)OC(C)(C)OC1=O
3. CCCCCC(C)N(Cc1ccc(OCC(C)C)cc1)C(Nc1ccc(N(C)C)cc1)=C1C(=O)OC(C)(C)OC1=O (stereo not drawn)
4. CCCCCCCN(Cc1ccc(C(C)(C)C)cc1)C(Nc1ccc(OCCCCCC)cc1)=C1C(=O)OC(C)(C)OC1=O
5. CCCCCc1ccc(CN(C(Nc2ccc(N(C)C)cc2C)=C2C(=O)OC(C)(C)OC2=O)C(C)CCCCC)cc1 (stereo not drawn)
6. COc1ccc(NC(NCC2(c3ccccc3)CCCC2)=C2C(=O)OC(C)(C)OC2=O)c(OC)c1

[98, 92, 99, 94, 98, 98]

Each of the following entries comes with a recorded value; kindly state % Inhibition for each.
1. CC(C)Cc1ccc(CN(C(Nc2ccc(N(C)C)cc2)=C2C(=O)OC(C)(C)OC2=O)C(C)CCCC(C)(C)O)cc1 (stereo not drawn)
2. CCCCCC(C)N(Cc1ccc(CCC(C)C)cc1)C(Nc1ccc(N(C)C)cc1)=C1C(=O)OC(C)(C)OC1=O (stereo not drawn)
3. COc1ccc(NC(=C2C(=O)OC(C)(C)OC2=O)N(Cc2ccc(CC(C)C)cc2)[C@@H](CO[Si](C)(C)C(C)(C)C)CC(C)C)c(OC)c1
4. CCCCCCCN(Cc1ccc(C(C)(C)C)cc1)C(Nc1c(OC)cc(OC)cc1OC)=C1C(=O)OC(C)(C)OC1=O

1: 81; 2: 96; 3: 97; 4: 94

Your task in this section: give % Inhibition for each listed record.
1. CCCCCCCN(Cc1ccc(CC(C)C)cc1)C(Nc1ccc(OC)cc1OC)=C1C(=O)OC(C)(C)OC1=O
2. COc1ccc(NC(=C2C(=O)OC(C)(C)OC2=O)N(Cc2ccc(CC(C)C)cc2)[C@@H](CO[Si](C)(C)C(C)(C)C)Cc2ccccc2)c(OC)c1
3. CCCCCC(C)N(Cc1ccc(C(C)(C)C)cc1)C(Nc1cc(OC)c(OC)c(OC)c1)=C1C(=O)OC(C)(C)OC1=O (stereo not drawn)

[97, 98, 96]
